test system: avian E. coli; experiment: Colibacillosis in chickens, medicated feed; assay type: in vivo; conditions: 300 gm./ton feed; about 5 weeks old; 10^-2 dilution challenge; first test
E. coli Lesions values for the molecules below.

- CC(=O)OCCn1cc(C(N)=O)c([N+](=O)[O-])n1 [Compound 80]: 9/30
- NC(=O)c1cn(CCO)nc1[N+](=O)[O-] [Compound 32]: 11/30
- CCOCCn1cc(C(N)=O)c([N+](=O)[O-])n1 [Compound 34]: 11/30

Would you kindly look at the next entry?
Prompt line: Recall the reported E. coli Lesions of C=CCn1cc(C(N)=O)c([N+](=O)[O-])n1 [Compound 16, 1-allyl-3-nitro-4-pyrazolecarboxamide] on avian E. coli and write it down.
Response line: 16/30
